Below, each entry is listed alongside its reported DR/DR LNA.
- test-method-notes: Probe fluorescence ratio response to linolenic acid relative to ADIFAB2
- Assay type: binding
- test-conditions: response relative to ADIFAB2
Please give the numeric answer without any surrounding text.

molecule | DR/DR LNA
38H 62W 106V 117A 72A (protein, listed as Rattus norvegicus, PEPTIDE (1)...(131) wild-type rat intestinal fatty acid binding protein) AFDGTWKVDRNENYEKFMEKMGINVVKRKLGAHDNLKHTITQEGNKFTVKESSNFRNIDVVWELGVDFAYSAADGTELTGTWTMEGNKLVGKFKRVDNGKELIAVVEISGNELIQTATYEGVEAKRIFKKE | 1.796

# context switch: different molecule, same DR/DR LNA
Quick one: DR/DR LNA of 60R, 72A (protein, listed as Rattus norvegicus, PEPTIDE (1)...(131) wild-type rat intestinal fatty acid binding protein) AFDGTWKVDRNENYEKFMEKMGINVVKRKLGAHDNLKLTITQEGNKFTVKESSNFRNIDRVFELGVDFAYSAADGTELTGTWTMEGNKLVGKFKRVDNGKELIAVREISGNELIQTYTYEGVEAKRIFKKE ?
0.14
